Cited source for all entries: paper PMC2756588

tested.target: T1, Bzz1-1, P38822
T1 sequence (P38822 478-572, looked up): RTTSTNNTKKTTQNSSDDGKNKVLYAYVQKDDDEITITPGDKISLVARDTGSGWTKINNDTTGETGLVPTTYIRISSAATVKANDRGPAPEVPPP
assay.text: SPOT array
study.conditions: median of control spots 4446
The following binders are listed with their measured SPOT intensity values.
The reply should be a number, written without any unit.

Consider the reported SPOT intensity for these binders:
binder | quantity.kind | recorded.number
GKKVRPLLVLLLSRA | SPOT intensity | 0
DLPLPDLPPEPPTEL | SPOT intensity | 0
HVRRSILALPLGVLL | SPOT intensity | 0
TEVPIPRRPPPPQAA | SPOT intensity | 12
KWVRRPKLMTPLTFS | SPOT intensity | 1
PKRRAPPPVPKKPSS | SPOT intensity | 650
PVLPPPRSPNRPTLS | SPOT intensity | 8
RKLRTVPGVPLIHLT | SPOT intensity | 1

-- ask # SPOT intensity lookup, item `LEFRAILFIPKRAPF`
-- reply 0

-- ask # SPOT intensity lookup, item `NIKVLLNPKLGKPVK`
-- reply 2
